Values compiled from patent US9233947B2.

- ASSAY TARGET: canine TRPM8 (Canis lupus familiaris, UniProt Q1A7N1)
- Sequence (Q1A7N1 1-1104): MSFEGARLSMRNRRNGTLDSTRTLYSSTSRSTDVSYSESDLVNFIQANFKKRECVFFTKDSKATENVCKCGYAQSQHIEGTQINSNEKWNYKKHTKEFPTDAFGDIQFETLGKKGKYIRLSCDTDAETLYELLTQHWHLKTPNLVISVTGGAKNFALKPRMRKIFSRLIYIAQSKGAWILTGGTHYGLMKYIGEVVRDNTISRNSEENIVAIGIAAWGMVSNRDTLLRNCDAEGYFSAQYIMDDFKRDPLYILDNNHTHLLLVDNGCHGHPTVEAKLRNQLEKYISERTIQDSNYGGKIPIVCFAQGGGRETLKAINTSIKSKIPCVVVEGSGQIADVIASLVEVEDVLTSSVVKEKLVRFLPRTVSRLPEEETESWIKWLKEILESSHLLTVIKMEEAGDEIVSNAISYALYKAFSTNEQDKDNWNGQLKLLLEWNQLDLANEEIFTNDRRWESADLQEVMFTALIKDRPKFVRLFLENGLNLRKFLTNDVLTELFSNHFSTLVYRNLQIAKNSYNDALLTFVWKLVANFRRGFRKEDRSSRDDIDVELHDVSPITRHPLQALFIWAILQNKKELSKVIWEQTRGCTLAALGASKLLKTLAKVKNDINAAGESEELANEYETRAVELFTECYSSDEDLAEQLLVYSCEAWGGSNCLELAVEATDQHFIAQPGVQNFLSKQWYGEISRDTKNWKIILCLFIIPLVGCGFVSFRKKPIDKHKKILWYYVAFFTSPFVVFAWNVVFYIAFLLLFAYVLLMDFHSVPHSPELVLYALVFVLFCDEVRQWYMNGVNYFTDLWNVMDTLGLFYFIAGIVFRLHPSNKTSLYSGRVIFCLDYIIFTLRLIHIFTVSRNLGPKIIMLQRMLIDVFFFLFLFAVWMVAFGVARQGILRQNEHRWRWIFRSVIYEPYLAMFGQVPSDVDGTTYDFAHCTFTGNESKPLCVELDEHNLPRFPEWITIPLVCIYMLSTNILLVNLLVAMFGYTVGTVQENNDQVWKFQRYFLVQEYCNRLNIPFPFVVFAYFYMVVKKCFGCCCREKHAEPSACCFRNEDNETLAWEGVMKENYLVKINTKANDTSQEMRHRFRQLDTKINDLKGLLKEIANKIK
- ASSAY DETAILS: In Vitro Canine TRPM8 Functional Assay (intracellular Ca2+ fluorescence, icilin activation)
- Format: cell-based
- EXPERIMENTAL CONDITIONS: HEK293 cells stably expressing canine TRPM8; icilin challenge at ~80% maximal response; eight-point dose-response; single determinations; read-out: IC50 (μM) @ 0.2
OBSERVED PROPERTY: IC50 (µM)

In [3]: df
Out[3]:
                                   molecule  observed_property  readout_units  reported_result
0  Cc1c(N(Cc2ccc(OC(F)(F)F)cc2)S(=O)(=O)N2CCC(C(=O)O)CC2)sc2ccccc12 [Compound 10]               IC50             µM           0.0046
1  Cc1c(N(Cc2ccc(OC(F)(F)F)cc2)S(=O)(=O)N2CCN(CC(F)(F)F)CC2)sc2ccccc12 [Compound 7]               IC50             µM            0.013
2  O=C(O)CCCNS(=O)(=O)N(Cc1ccc(F)c(C(F)(F)F)c1)c1sc2ccccc2c1Br [Compound 15]               IC50             µM            0.018
3  O=C(O)CCCCNS(=O)(=O)N(Cc1ccc(F)c(C(F)(F)F)c1)c1sc2ccccc2c1Br [Compound 16]               IC50             µM           0.0085

* * *

- ASSAY TARGET: canine TRPM8 (Canis lupus familiaris)
- ASSAY DETAILS: In Vitro Canine TRPM8 Functional Assay (intracellular Ca2+ fluorescence, icilin activation)
- Type: cell-based
- EXPERIMENTAL CONDITIONS: 0.2 μM compound; HEK293 cells stably expressing canine TRPM8; icilin challenge
# % Inh @ 0.2 (μM) values compiled below
OBSERVED PROPERTY: % Inh @ 0.2 (μM) (%)

In [3]: df
Out[3]:
                  compound_structure_string  reported_result
0  Cc1c(N(Cc2ccc(OC(F)(F)F)cc2)S(=O)(=O)NS(=O)(=O)N2CCN(N3CCCC3)CC2)sc2ccccc12                9
1  O=C(O)CCCCNS(=O)(=O)N(Cc1ccc(F)c(C(F)(F)F)c1)c1sc2ccccc2c1Br              101
2  O=C(O)CNS(=O)(=O)N(Cc1ccc(F)c(C(F)(F)F)c1)c1sc2ccccc2c1Br               33
3  Cc1c(N(Cc2ccc(OC(F)(F)F)cc2)S(=O)(=O)N2CCOCC2)sc2ccccc12              100
4  O=C(O)CCCNS(=O)(=O)N(Cc1ccc(F)c(C(F)(F)F)c1)c1sc2ccccc2c1Br              101
5  Cc1c(N(Cc2ccc(OC(F)(F)F)cc2)S(=O)(=O)N2CCC(C(=O)N3CCN(C)CC3)CC2)sc2ccccc12               30

* * *

- ASSAY TARGET: canine TRPM8 (Canis lupus familiaris)
- ASSAY DETAILS: In Vitro Canine TRPM8 Functional Assay (intracellular Ca2+ fluorescence, icilin activation)
- Type: cell-based
- EXPERIMENTAL CONDITIONS: 0.2 μM compound; HEK293 cells stably expressing canine TRPM8; icilin challenge
- Experimental: The functional activity of compounds of the formula (I) was determined by measuring changes in intracellular calcium concentration using a Ca^2+-sensitive fluorescent dye. The changes in fluorescent signal were monitored by a fluorescence plate reader, either a FLIPR™ (Molecular Devices) or FDSS (Hamamatsu). […]
OBSERVED PROPERTY: % Inh @ 0.2 (μM) (%)

>>> print(df.to_string())
                                   compound                           assay_target  observed_property  reported_result
0  Cc1c(N(Cc2ccc(OC(F)(F)F)cc2)S(=O)(=O)NS(=O)(=O)N2CCNCC2)sc2ccccc12 [Compound 3]  canine TRPM8 (Canis lupus familiaris)   % Inh @ 0.2 (μM)               19
1  Cc1c(N(Cc2ccc(OC(F)(F)F)cc2)S(=O)(=O)N2CCN(CC(F)(F)F)CC2)sc2ccccc12 [Compound 7]  canine TRPM8 (Canis lupus familiaris)   % Inh @ 0.2 (μM)              100
2  Cc1c(N(Cc2ccc(F)c(C(F)(F)F)c2)S(=O)(=O)NCCCC(=O)O)sc2ccccc12 [Compound 13]  canine TRPM8 (Canis lupus familiaris)   % Inh @ 0.2 (μM)               72
3  Cc1c(N(Cc2ccc(OC(F)(F)F)cc2)S(=O)(=O)NS(=O)(=O)N2CCC(N(C)C)CC2)sc2ccccc12 [Compound 8]  canine TRPM8 (Canis lupus familiaris)   % Inh @ 0.2 (μM)               36
